The origin of these recorded values is the NTF2 design screens of Basanta et al. (2020).

test method notes: protease stability score; higher = more stable; yeast display proteolysis, trypsin and chymotrypsin;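 note: relative to predicted unfolded state with 0 unfolded-like and 1 meaning tenfold more protease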
measurement name: protease stability score
Output: the number by itself.

I'd like to know its protease stability score. The sequence in question is `DEHHEVSEKVAKLFLEIWETGDWKTLKRLADPRVRTHIIIGDKTINEHGRENYIRSTVEFLERFPNMRYEIREVRVIGDKIETQGEMNVNGKTFDVIIELIIIDGRIKEVRVENR` 1.08

`DHEEEIAQKAFTDWHHALLTGDWERHEEMFDPDVREDINGVDLHGRELIVKQVRRDLQDFGIKHFEIRIRRLSFQGNKVIFDGIIIFHVDGREERFHVRVLFRKINGVWYLHSRFLH` ? 1.06

Further, for `DEHHEIVRSMSELLTHLHLTGDEEKLSRMADPRVRLDVNGQWFHGREQWEKAFEDFEREMGAKHVKVDHVHVQGNKIILHFHVNVDGVHITVEFDIIIVDGRLKREHIRLK` ? 0.621

And what about the sequence `SEDEKQFNEFLKLFNHSLQTGDEDTLTDLMDPTVRSDINGREFHGREEMSRALNILIKLAGVDHTSIDLKRLEVVGDKAHSDVSLLLIQGDKIRTHEMKLDMYKIDGKWILTHLRFK` ? 1.66

Also `DEDRREVQRFIESVVHAIRTGDWRRILELADPNTRLDFDGKVFHGMHVSVKRIIEELEKVKGLRIKDMTTDSVNIYNGVVELDGTLDLEIGDYESHVSAKFVLLKFNGRWFIHEESTR` ? 1.59

====

For each record, write down the corresponding protease stability score.
test method notes: protease stability score; higher = more stable; yeast display proteolysis, trypsin and chymotrypsin;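 note: relative to predicted unfolded state with 0 unfolded-like and 1 meaning tenfold more protease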
The response must contain the number and no unit.

Find the recorded protease stability score belonging to `DKEDEEAKRLLEIFITHHLTGDEEHYQTLMDPHARLDFDGRHNVGREKITEFLRRFGADHVHIKHIEVELYNGKLYVRIEVELRIGDKTMDMIWVLQLRKVDGRWHIRRETWILL` and report it. 0.703

Same question for `NDDQKELEHIMKLLSRALETGDEEKLRELFDPHTRIHINGVTRIGWEHMKHHFEDLGLSNFHFHLRVRHFDVQGDKARVEGELVVNFNGKETSHDVEWRLEKVNGRWIVKSIIVG` please. 2.27

Would you kindly repeat that for `DRREEMEEIADELRRELIKTGDEHSTHRLADPHAKLHIGDKEYHGMEFMIRFFKILGVDHLRLQDIRVIDGQVHIHITSRVGDKRVHVEIISDKYNGRWRLREVIITID` ? 0.711

Okay, and `DEESKFLTEMLEDILRALITGDEEHLQTLMDPDVRVEVGDKLFIGREQASEFWRREFEEIRIDDFRIHHLEVIDGRVHVHGRVDGTIGDKHHRREIIIHDLIVNGRIKKIRIEIH` ? 1.31

`DDLEEATEFYIKLYYEAVETGDERLITELADPNMRIDWNGREIHGREEFVRRLREMRVSRIEVQHVDKYGDKLHIHVRIIIEVGDKKIESSSHLISLKFNGRWLLKSMWIK` , same question. 1.39

Again, but for `DEDERDFRHYMELFQKAHETGDEDHFIKMMDPNARFLINGVHLHGWKEFVRLLEHIRMDVSDTRIRTVDSQGDKVRADTELIFRGKIDGREIDVTFETRIIIEKVDGRWHLREIRVH` 1.3

====

test method notes: protease stability score; higher = more stable; yeast display proteolysis, trypsin and chymotrypsin;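 note: relative to predicted unfolded state with 0 unfolded-like and 1 meaning tenfold more protease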
Short version: protease stability score at least 1 is criterion met, less is criterion not met.

Reported protease stability score reaches at least 1 for `DELDEQVEELARDIIRNWHTGDEERWEHLADPHVRVTIDGRLHIGREEAMKMLRHWLKRIDHITVNIRRIHVFNGRSEVHSELTMHVGDKNIHHHEIINIVIVDGRIHNQEIHLK` ? criterion met

Here is the next sequence: `DREENEIREFIEKLVDAHLTGNFELMDELADPNVRIEIGDKRYHGREEYLRLMHELRIHHVEIDHIEWYNGQVHMHGTVDGVVDGRRHRIHTEMTVEKVNGRWILTEERQL` criterion met

And for `DERDEHAHHFFELLLKMWETGDEHELIKFFDPDPRFIYNGKELHGREIAEEFIKEWRVHDMRVKRINVQGEKVIFDGIMDGEFNGKRIFIETHIYMTKVNGKWRTKFIEFN` ? criterion met

Same question for `SELDEYMHRMMKWILEEEITGDEERFLHLADPHVRSRIDVGEWKWDHHGRDAIRVYREQVDHITHVKVSNFHVQGDKAISDVHEEVRVGDKHVIRRIEIIVIVIDGKVHSIELEIK` please. criterion not met

Would you mind doing `SEKDQALTEMLEIFLQVHRTGNEEDMHRLADPNARSVYNGQDLHGWEHVFNIMRRIDHIHHVTVKRVEYFDGRVSLDGHINIEIGDKSYHIDISISLRKVDGQWHIESIEFI` as well? criterion not met

Also, `DEDEETLHEIVEILIRWLKTGDFDAVLKNLDPDARVEINGQELHGREQWYRYIHEEWKKVKNLTIIVSRMHVQGDKVMFEGEVHFDGQRRDVSIDMRVVNGRFRTIKKEVK` please. criterion met

Consider next the sequence `SEDEIAVKKFMQRWIEAVHTGNEDVLTELADPNYRIIFEGRNLHGMDQILHDVRRVDVLEERMHVTSVDSQGDKIHIHGTLQVHFHVGDKQIDIHTQVTWHMLKIDGVWILKKVEIH` in the same way. criterion met

Request: `DEDKEEAMKFLRLWFHSVLTGDEDELTRLLDPNTRIVIDGRTFVGREEMVFVMREMRVHHFHIKDVHLVNGVAHIDTHSDIEFNGRRYRTDTEISVLKVDGKWILKSVKIR` criterion met

Would you mind doing `SEDERDISEVLEEISRIWKTGDEKRFRDLADPNVKMVVNGRELHGRDFAIEAWRKFRELYGIKHIRTVQVNSIDIQGDKVHVDTSMDGQQGEKRTVLRSEIIMLKVDGRWHLESMSFG` as well? criterion met

Next sequence: `SEDEKNVEEMSRRLSHVLKTGDEESFSRLADPNARHIYNGRILHGWENFVRFLRHLWEHARIHELHVHDFEYQGDFMHVDSRLNGDINGQQMIFTTHLYNIKINGRWFLTEVKIV` criterion not met

====

test method notes: protease stability score; higher = more stable; yeast display proteolysis, trypsin and chymotrypsin;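 note: relative to predicted unfolded state with 0 unfolded-like and 1 meaning tenfold more protease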
Hi, to clarify the labels: yes (1) covers protease stability score from 1 upward, no (0) covers anything below 1.

Given `SEEDELAKRILETLVRLLLTGNEELRHELADPNMRTEVDGVDLWGMHNDVHFWREIRLKELRIRHIEVQGDKSHSITDLDVEIDGKRIRVETKIRVVVVNGKIHRLHVRID` , state whether its protease stability score is at least 1. yes (1)

Then this sequence: `DEEEHLLRRVSHFWARARKTGNEEVIRDLMDPNMRSTINGVEFHGREEHLHTLREWRVKSVHFEHVHVVDGRIEIKMREDGFVNGRETHFTLRITIVIIDGVVHHISIDLR` no (0)

Also `SEEEEESRKMLELFKELLETGDEEDMTKLADPNVRIIYDGKHLHGRHVAHDVWHELSNRVKNAKFHFDVIKIVGEKVILEITIHVDGQDIESSTILDKFNGKWYMEEVFFH` ? yes (1)

Again, but for `SEEEELHEILLHLLLLMHTTGDEHLLRRLADPNARVDINGREWHGRDLMVKFLVEIRIHRTRIHDERDIDGRVHMETRVDGLWNGVRYTFDTRIHAVKVNGRWLLESYSVE` yes (1)

What about `SEEDEKKEEETRLMLEWWRTGDEHAIARNMDPDARLEVDGKERHGREEVLRFISEMLKRLGVDHVRITDWRIIGDFVEVDLSIEVGDKSRKFHLHFFIIDGRIKEIKIDER` ? yes (1)

Consider next the sequence `DEDEDHVRDMIEVFVRLMITGDEDTFKNLADPHVQFHFENVKLHGRHALLEWLRRLNREFKNIRVQILVHHVEVQGEKATVHSHIVVHVGDKTEHYDTELHIIVIDGRIKTVIIKRK` in the same way. yes (1)

Entry `DEDTHLAKVVLEIFLHLMRTGDFKETWEYADPHVRIDIGDKHLHGREELARLMEELGIDHFEIRDVHLQGDKLHIRTDVDFNGVRTHVVFIILKVDGRWVLTHVRIE` please yes (1)

Entry to check: `DEEDEANKQIMEHLRKVWDTGDFHTYLRLADPHMRFIVGDKIFHGREEITQLIKELLEKFGADHVELENSRESLVGDKLHLDLHTRYHFNGREIRVDVHNEVTKIDGKWHIKFLSLRIK` yes (1)

Moving on to `TEEDHFLKRELEKYIHSILTGDEDSTQHMIDPHARVFWNGVELHGRDAITKIMREWRIRHVRIERFEVQGDKIESHSISHMEINGKKHDHIFRITSEKYDGRWVIRELSIE` yes (1)

Also, `DEDKKLVEWVLRMLFEALRTGDEHALNNLFDPNVRIEQGDKRFHGREELIRLFHILGIDHIIIEDKDIKVFDGQLEIDGREVLIFDGRRFEIDMKIYIHKINGRWHVKSVHKD` please. yes (1)

Another sequence: `DEDEDIVRRHLHKLSKAWRTGDEETEKKLADPHARIQIGDKTDHGMEKMTKDWHEFLREMRVEIRIEDTRVQGDKVVNHIHIHSDIDGKEIILHSRIIVRKIDGRWHIESFVLI` no (0)
